- Experiment summary: Plasma concentration in rat at 0.16 mg/kg, po measured after 1 hr
- Type: ADME, organism-based
Parameter measured: concentration at 1 h (nM)
Express the result in nM but write the number alone.

Which concentration at 1 h value is on record for Cc1ccc([C@H]2C[C@@H]2COc2cc(NCc3nnc(C)s3)nc(C)n2)nc1 ? 18

====

- Experiment summary: Selectivity ratio of Ki for N-terminal GST-tagged human recombinant PDE5A1 (1 to 875 residues) expressed in baculovirus-infected Sf9 cells to Ki for human PDE10A2 transfected in human AD293 cells cytosolic fraction
Parameter measured: Ratio Ki

Cn1cc(CNc2cc(OC[C@H]3C[C@@H]3c3ccccn3)nc3ccncc23)cn1	> 20000
Cc1nnc(CNc2cc(OC[C@H]3C[C@@H]3c3ccccn3)nc3cccnc23)s1	> 3600
Cc1ccc([C@H]2C[C@@H]2COc2cc(NCc3cnn(C)c3)nc(C)n2)nc1	> 425000
Cc1c(Cl)nc(OC[C@H]2C[C@@H]2c2ccccn2)nc1NCc1cnn(C)c1	> 2500
Cn1cc(CNc2cc(OC[C@H]3C[C@@H]3c3ccccn3)nc3cnccc23)cn1	> 7000
COc1ccc([C@H]2C[C@@H]2COc2cc(NCc3cnn(C)c3)nc(C)n2)nc1	> 490000

Which Ratio Ki value is on record for Cn1cc(CNc2cc(OC[C@H]3C[C@@H]3c3ccccn3)nc3ccccc23)cn1 ? > 5000

Which Ratio Ki value is on record for Cc1ccc([C@H]2C[C@@H]2COc2cc(NCc3nnc(C)s3)nc(C)n2)nc1 ? > 500000

Which Ratio Ki value is on record for Cn1cc(CNc2cc(OC[C@H]3C[C@@H]3c3ccccn3)nc3cccnc23)cn1 ? > 2000

Source: ChEMBL document CHEMBL5316310
